target-system: human GLP-1 receptor (human, UniProt P43220 24-463)
assay-comment: cell-based or functional assay
Positions of bridges follow the written chain, without caps; N, C: chain ends. Non-standard residues stand in square brackets, D forms with d. No end group written: not given here. *: point of attachment. Acetyl(2-(4-imidazolyl)) = O=C(Cc1c[nH]cn1)*; Aib = CC(C)(N)C(=O)O
Each record here notes measured In vitro activity (%) compared with native peptide: vs GLP-1.
Write it as a number; the unit % goes unstated.

H[Aib]QGTFTSDVSKYLDGQAAQEFVAWLLAGC (not fully specified) [triple agonist of SEQ ID NO: 9] | 32.1

Record summary for Y[Aib]QGTFTSDYSKALDEKAAKEFVNWLLDHHPSSGQPPPSC (bridge 16-20; not fully specified) [triple agonist of SEQ ID NO: 98] : reported In vitro activity (%) compared with native peptide: vs GLP-1 = 28.1

In vitro activity (%) compared with native peptide: vs GLP-1 reported for this binder Y[Aib]QGTFTSDYSKCLDEKRAKEFVQWLLDHHPSSGQPPPS (bridge 16-20; not fully specified) [triple agonist of SEQ ID NO: 22] : 20.1

// field: In vitro activity (%) compared with native peptide: vs GLP-1; key: H[Aib]QGTFTSDYSKYLDEKACKEFVQWLLAQ (bridge 16-20; not fully specified) [triple agonist of SEQ ID NO: 31] ; value = 135

According to the records, this binder {Acetyl(2-(4-imidazolyl))}-[Aib]QGTFTSDYSKYLDEKRQKEFVNWLLAQKC (bridge 15-19; not fully specified) [triple agonist of SEQ ID NO: 93] displays In vitro activity (%) compared with native peptide: vs GLP-1 of 5.7

The binder listed as Y[Aib]QGTFTSDYSKYLDEKRAKEFVQWLLDCHPSSGQPPPS (bridge 16-20; not fully specified) [triple agonist of SEQ ID NO: 97] shows In vitro activity (%) compared with native peptide: vs GLP-1 equal to 10.5

Short answer for Y[Aib]QGTFTSDYSKYLDEKAAKDFVQWLLDHHPSSGQPPPSC (bridge 16-20; not fully specified) [triple agonist of SEQ ID NO: 77] : In vitro activity (%) compared with native peptide: vs GLP-1 was 38.7

For this binder ( {Acetyl(2-(4-imidazolyl))}-[Aib]EGTFTSDYSIAMDEIHQKDFVNWLLAQKC (bridge 15-19; not fully specified) [triple agonist of SEQ ID NO: 90] ), measured In vitro activity (%) compared with native peptide: vs GLP-1 is 7.4

The binder Y[Aib]QGTFTSDYSKCLDEKAAKEFVQWLLDHHPSSGQPPPS (bridge 16-20; not fully specified) [triple agonist of SEQ ID NO: 68] showed In vitro activity (%) compared with native peptide: vs GLP-1 equal to 27.9

In vitro activity (%) compared with native peptide: vs GLP-1 in this record for {Acetyl(2-(4-imidazolyl))}-[Aib]EGTFTSDYSIAMDEIHQKDFVDWLLAEC (bridge 15-19; not fully specified) [triple agonist of SEQ ID NO: 84] : 4.2
